Could you please report measured pKd for the items listed next?
- Tgt: T1, canine NGF tagged at the C-terminus with the Flag tag (canine, UniProt A0A8I3PYI3 122-241)
- T1 construct: mature; Expressed with baculovirus technology; also called feline NGF (processed form identical)
- Procedure summary: SPR off-rate assay, Fab-SASA on BSA chip
pKd: −log10 of the molar value.

Q: Requested read-out: pKd. Entry: AHF17602 (Fab-SASA) (Fab, V domains shown, not shown: small tags and cut ends) VH: DVQLVESGGDLVKPGGSLRLTCVASGLSLTSSSMVWVRQAPGKGLQWVSTIYSNRGTYYTDSVKGRFTISKDNAENTLYLQMNNLKTEDTATYYCASIYYYDADYLHWYFDFWGQGALVTVSS VL: EIQMTQSPTSLSASVGDRVTITCRASEGIANNLSWYQQTPGKAPKLLIYATSNLHSGVPSRFSGSGSGTDFTLTISSLQPEDFATYYCQQGYKWPLTFGGGTKLEITR
Result: ≥ 11.32

Q: Data request, read-out pKd, for AHF17604 (Fab, V domains shown, not shown: small tags and cut ends, Fab-SASA, combinatorial library) VH: DVQLVESGGDLVKPGGSLRLTCVASGLSLTSSSMVWVRQAPGKGLQWVSTIYSNRGTYYTDSVKGRFTISKDNAENTLYLQMNNLKTEDTATYYCAQIYYYDADYLHWYFDFWGQGALVTVSS VL: EIQMTQSPTSLSASVGDRVTITCRASEGIQNNLSWYQQTPGKAPKLLIYATSILHSGVPSRFSGSGSGTDFTLTISSLQPEDFATYYCQQGYKWPLTFGGGTKLEITR
Result: 9.49

Q: Consider the binder AHF17595 (Fab, V domains shown, not shown: small tags and cut ends) VH: DVQLVESGGDLVKPGGSLRLTCVASGLSLTSSSMVWVRQAPGKGLQWVSTIYSNRGTYYTDSVKGRFTISKDNAENTLYLQMNNLKTEDTATYYCASIYYYDADYLHWYFDEWGQGALVTVSS VL: EIQMTQSPTSLSASVGDRVTITCRASEGIQNNLSWYQQTPGKAPKLLIYATSNLHSGVPSRFSGSGSGTDFTLTISSLQPEDFATYYCQQGYKWPLTFGGGTKLEITR and give its measured pKd.
Result: ≥ 11.25
